# Test Target: human HER2 (23-652) (Homo sapiens, UniProt P04626)
# Measurement Notes: Surface plasmon resonance (SPR) for assessment of peptide affinity, human HER2
# Type: binding
# Set-up: towards human HER2 (23-652) and mouse HER2 (23-653); made in house
# Test Context: SPR, human HER2 extracellular domain, 25° C., 1:1 binding model; read-out: huHER2-SPR-ONC KD
pKd: −log10 of the molar value. Starred links: 1 amine or outer side, 2 acyl side, 3 side chain; linkers in the order of their positions; H or OH if unused. Positions of bridges follow the written chain, without caps; N, C: chain ends. Non-standard residues stand in square brackets, D forms with d. Residues, ends and D or L forms follow the SMILES beside them. Trp(5-OH) = N[C@@H](Cc1c[nH]c2ccc(O)cc12)C(=O)O; NMePhe(4-F) = CN[C@@H](Cc1ccc(F)cc1)C(=O)O; NMehPhe = CN[C@@H](CCc1ccccc1)C(=O)O; Gly(cPr) = N[C@H](C(=O)O)C1CC1; NMeC = CN[C@@H](CS)C(=O)O; NMeS = CN[C@@H](CO)C(=O)O; Dap = NC[C@H](N)C(=O)O; X5 = O=C(C[*:2])[*:1]
Readout: pKd

# Compound, Test Target, Qualifier Operator, Experimental Value
rows = [
    ("CC(=O)NCCCC[C@H]1C(=O)N[C@@H](Cc2c[nH]c3ccc(O)cc23)C(=O)N[C@@H](Cc2c[nH]c3ccccc23)C(=O)N[C@@H](C2CC2)C(=O)N(C)[C@H](C(=O)N(C)[C@@H](Cc2ccc(F)cc2)C(=O)N[C@@H](CCCCNC(=O)CC[C@H](C(=O)O)N2CCN(CC(=O)O)CCN(CC(=O)O)CCN(CC(=O)O)CC2)C(N)=O)CNC(=O)CCC[C@H](NC(C)=O)C(=O)N[C@@H](Cc2ccc(O)cc2)C(=O)N[C@@H](CO)C(=O)N(C)[C@@H](CCc2ccccc2)C(=O)N1C [Example B12]", "human HER2 (23-652) (Homo sapiens, UniProt P04626)", ">", 10.00),
    ("CC(=O)N[C@H]1CNC(=O)CSC[C@@H](C(=O)N(C)[C@@H](Cc2ccc(F)cc2)C(N)=O)N(C)C(=O)[C@H](C2CC2)NC(=O)[C@H](Cc2c[nH]c3ccccc23)NC(=O)[C@H](Cc2c[nH]c3ccc(O)cc23)NC(=O)[C@H](CO)N(C)C(=O)[C@H](CCc2ccccc2)N(C)C(=O)[C@H](CO)NC(=O)[C@H](Cc2ccc(O)cc2)NC1=O [Example A50] (Ac-[Dap]YS[NMehPhe][NMeS][Trp(5-OH)]W[Gly(cPr)][NMeC][NMePhe(4-F)]-NH2; linker 1-9 via X5)", "human HER2 (23-652) (Homo sapiens, UniProt P04626)", "=", 6.93),
]

---

# Test Target: mouse HER2 (23-653) (Mus musculus)
# Measurement Notes: Surface plasmon resonance (SPR) for assessment of peptide affinity, mouse HER2
# Type: binding
# Design: mouse HER2 (23-653) using a Cy5 labeled peptide as a probe; made in house
# Test Context: SPR, mouse HER2 extracellular domain, 25° C., 1:1 binding model; read-out: moHER2-SPR-ONC KD
Positions of bridges follow the written chain, without caps; N, C: chain ends. Non-standard residues stand in square brackets, D forms with d. Residues, ends and D or L forms follow the SMILES beside them. Trp(5-OH) = N[C@@H](Cc1c[nH]c2ccc(O)cc12)C(=O)O; NMePhe(4-F) = CN[C@@H](Cc1ccc(F)cc1)C(=O)O; NMehPhe = CN[C@@H](CCc1ccccc1)C(=O)O; Aad = N[C@@H](CCCC(=O)O)C(=O)O; Gly(cPr) = N[C@H](C(=O)O)C1CC1; Ahp(2) = CCCCC[C@H](N)C(=O)O; NMeK = CN[C@@H](CCCCN)C(=O)O; NMeDap = CN[C@@H](CN)C(=O)O

# Compound, Qualifier Operator, Kd (nM)
data = [
    ("CN1C(=O)[C@H](CO)NC(=O)[C@H](Cc2ccc(O)cc2)NC(=O)[C@@H](N)CCC(=O)NC[C@@H](C(=O)N(C)[C@@H](Cc2ccc(F)cc2)C(N)=O)N(C)C(=O)[C@H](C2CC2)NC(=O)[C@H](Cc2c[nH]c3ccccc23)NC(=O)[C@H](Cc2c[nH]c3ccc(O)cc23)NC(=O)[C@H](CO)N(C)C(=O)[C@@H]1CCc1ccccc1 [Example A35]", "=", 66),
    ("CC(=O)N[C@H]1CCC(=O)NCC[C@@H](C(=O)N(C)[C@@H](Cc2ccc(F)cc2)C(N)=O)N(C)C(=O)[C@H](C2CC2)NC(=O)[C@H](Cc2c[nH]c3ccccc23)NC(=O)[C@H](Cc2c[nH]c3ccc(O)cc23)NC(=O)[C@H](CO)N(C)C(=O)[C@H](CCc2ccccc2)N(C)C(=O)[C@H](CO)NC(=O)[C@H](Cc2ccc(O)cc2)NC1=O [Example A10]", "=", 520),
    ("CCCCC[C@@H]1NC(=O)[C@H](Cc2c[nH]c3ccc(O)cc23)NC(=O)[C@H](CCCCNC(C)=O)N(C)C(=O)[C@H](CCc2ccccc2)N(C)C(=O)[C@H](CO)NC(=O)[C@H](Cc2ccc(O)cc2)NC(=O)[C@@H](NC(C)=O)CCCC(=O)NC[C@@H](C(=O)N(C)[C@@H](Cc2ccc(F)cc2)C(N)=O)N(C)C(=O)[C@H](C2CC2)NC1=O [Example A17] (Ac-[Aad]YS[NMehPhe][NMeK](Ac)[Trp(5-OH)][Ahp(2)][Gly(cPr)][NMeDap][NMePhe(4-F)]-NH2; lactam 1-9)", ">", 6000),
    ("CC(=O)N[C@H]1CCC(=O)NC[C@@H](C(=O)N(C)[C@@H](Cc2ccc(F)cc2)C(=O)N2CCC[C@H]2C(N)=O)N(C)C(=O)[C@H](C2CC2)NC(=O)[C@H](Cc2c[nH]c3ccccc23)NC(=O)[C@H](Cc2c[nH]c3ccc(O)cc23)NC(=O)[C@H](CO)N(C)C(=O)[C@H](CCc2ccccc2)N(C)C(=O)[C@H](CO)NC(=O)[C@H](Cc2ccc(O)cc2)NC1=O [Example A30]", "=", 30),
    ("CC(=O)NCCCC[C@H]1C(=O)N[C@@H](Cc2c[nH]c3ccc(O)cc23)C(=O)N[C@H](Cc2c[nH]c3ccccc23)C(=O)N[C@@H](C2CC2)C(=O)N(C)[C@H](C(=O)N(C)[C@@H](Cc2ccc(F)cc2)C(=O)N[C@@H](CCCCNC(=O)CN2CCN(CC(=O)O)CCN(CC(=O)O)CCN(CC(=O)O)CC2)C(N)=O)CNC(=O)CCC[C@H](NC(C)=O)C(=O)N[C@@H](Cc2ccc(O)cc2)C(=O)N[C@@H](CO)C(=O)N(C)[C@@H](CCc2ccccc2)C(=O)N1C [Example B9]", ">", 6000),
]

---

# Test Target: mouse HER2 (23-653) (Mus musculus)
# Measurement Notes: TR-FRET competition assay for peptide potency, mouse HER2
# Type: binding
# Design: mouse HER2 (23-653) using a Cy5 labeled peptide as a probe; made in house; host or cells: mammalian cells
# Test Context: TR-FRET competition with Cy5 labeled peptide probe, 0.1 nM mouse HER2, 24 h incubation; read-out: moHER2 TR-FRET IC50
Starred links: 1 amine or outer side, 2 acyl side, 3 side chain; linkers in the order of their positions; H or OH if unused. Positions of bridges follow the written chain, without caps; N, C: chain ends. Non-standard residues stand in square brackets, D forms with d. Residues, ends and D or L forms follow the SMILES beside them. Trp(5-OH) = N[C@@H](Cc1c[nH]c2ccc(O)cc12)C(=O)O; NMePhe(4-F) = CN[C@@H](Cc1ccc(F)cc1)C(=O)O; NMehPhe = CN[C@@H](CCc1ccccc1)C(=O)O; Gly(cPr) = N[C@H](C(=O)O)C1CC1; NMeC = CN[C@@H](CS)C(=O)O; NMeS = CN[C@@H](CO)C(=O)O; Dap = NC[C@H](N)C(=O)O; X5 = O=C(C[*:2])[*:1]

# Compound, Qualifier Operator, IC50 / nM
rows = [
    ("CC(=O)NCCCC[C@H]1C(=O)N[C@@H](Cc2c[nH]c3ccc(O)cc23)C(=O)N[C@@H](Cc2c[nH]c3ccccc23)C(=O)N[C@@H](C2CC2)C(=O)N(C)[C@H](C(=O)N(C)[C@@H](Cc2ccc(F)cc2)C(=O)N[C@@H](CCCCNC(=O)CCC(C(=O)O)N2CCN(CC(=O)O)CCN(CC(=O)O)CC2)C(N)=O)CNC(=O)CCC[C@H](NC(C)=O)C(=O)N[C@@H](Cc2ccc(O)cc2)C(=O)N[C@@H](CO)C(=O)N(C)[C@@H](CCc2ccccc2)C(=O)N1C (single isomer, unassigned) [Example C34]", "<", 0.1),
    ("CC(=O)N[C@H]1CNC(=O)CSC[C@@H](C(=O)N(C)[C@@H](Cc2ccc(F)cc2)C(N)=O)N(C)C(=O)[C@H](C2CC2)NC(=O)[C@H](Cc2c[nH]c3ccccc23)NC(=O)[C@H](Cc2c[nH]c3ccc(O)cc23)NC(=O)[C@H](CO)N(C)C(=O)[C@H](CCc2ccccc2)N(C)C(=O)[C@H](CO)NC(=O)[C@H](Cc2ccc(O)cc2)NC1=O [Example A50] (Ac-[Dap]YS[NMehPhe][NMeS][Trp(5-OH)]W[Gly(cPr)][NMeC][NMePhe(4-F)]-NH2; linker 1-9 via X5)", "=", 430),
]
